Reference for the values: patent US5801035A

Tested on: L-amino acid oxidase
Experimental Protocol: Substrate specificity: specific activity and Km (Lineweaver-Burk) with various L-amino acids, H2O2 detected with ABTS and CiP
Assay type: biochemical, Trichoderma harzianum
Test Parameters: Lineweaver-Burk plots; phosphate buffer pH 8.5, room temperature
Quick reference: Km of the listed items.
// units = mM; emit number, no label

Check out these entries, answers already filled in.
N=C(N)NCCC[C@H](N)C(=O)O [L-arginine] : 1.2
N[C@@H](Cc1ccccc1)C(=O)O [L-phenylalanine] : 25
NCCCC[C@H](N)C(=O)O [L-lysine] : 0.2

Ask: Please report Km for the following molecule: CC(C)C[C@H](N)C(=O)O [L-leucine]
Result: 40

Ask: Please report Km for the following molecule: NC(=O)C[C@H](N)C(=O)O [L-asparagine]
Result: 20

Ask: Please report Km for the following molecule: CSCC[C@H](N)C(=O)O [L-methionine]
Result: 15

----------
Tested on: L-amino acid oxidase
Experimental Protocol: Substrate specificity: specific activity and Km (Lineweaver-Burk) with various L-amino acids, H2O2 detected with ABTS and CiP
Format: biochemical, Trichoderma harzianum
Test Parameters: Substrate Conc. 80 (m/M); phosphate buffer pH 8.5, room temperature, 20 minutes
Method: The specific activity of the purified L-amino acid oxidase was 16 U/mg determined in a 50 mM phosphate buffer at pH 8.5, 20° C. with 1 mM L-arginine as substrate. One unit of enzyme will form 1 μmole of hydrogen peroxide per minute. The amount of protein is quantified assuming that a solution of the L-amino acid oxidase having an optical density of 1 determined at 280 nm contains 1 mg of protein/ml. […] The activity of the L-amino acid oxidase was determined with various L-amino acids as substrates. […]
Quantity: Specific Activity (U/mg)
// units = U/mg; emit number, no label

Check out these entries, answers already filled in.
NC(=O)C[C@H](N)C(=O)O [L-asparagine] : 7
N[C@@H](Cc1ccccc1)C(=O)O [L-phenylalanine] : 25
CSCC[C@H](N)C(=O)O [L-methionine] : 8

# ---- query compound ----
Ask: Please report Specific Activity for the following compound: CC(C)C[C@H](N)C(=O)O [L-leucine]
Result: 16
